# OD450 values compiled below
- measured-on: T1, human MSLN-FL-his protein (human, UniProt Q13421 296-580)
- T1 construct: Made in HEK293E cells, purified on nickel column; it is put last here; also called human MSLN full-length protein; hMSLN-FL-his; not shown: His tag
- experiment-summary: ELISA on coated antigen, antibody 0.01 nM
Please reply with the bare figure in OD and do not write the unit itself.

# annotated cases, reported OD450 shown
binder	unit-annotation	OD450
S009-F8-8.22 (antibody, human IgG1, kappa, V domains shown, Human-murine chimeric antibody, human IgG1 heavy and kappa light constant regions) VH: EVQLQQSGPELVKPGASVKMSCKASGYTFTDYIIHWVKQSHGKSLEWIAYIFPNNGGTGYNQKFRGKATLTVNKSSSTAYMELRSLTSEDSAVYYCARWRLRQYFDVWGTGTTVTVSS VL: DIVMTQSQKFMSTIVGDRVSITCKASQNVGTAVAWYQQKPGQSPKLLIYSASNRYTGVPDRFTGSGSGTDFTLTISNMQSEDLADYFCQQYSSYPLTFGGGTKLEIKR	OD	0.91
S009-F8-22.23 (antibody, human IgG1, kappa, V domains shown, Human-murine chimeric antibody, human IgG1 heavy and kappa light constant regions) VH: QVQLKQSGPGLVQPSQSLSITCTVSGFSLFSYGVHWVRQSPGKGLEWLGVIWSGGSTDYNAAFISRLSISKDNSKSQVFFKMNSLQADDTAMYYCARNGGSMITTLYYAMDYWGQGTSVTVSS VL: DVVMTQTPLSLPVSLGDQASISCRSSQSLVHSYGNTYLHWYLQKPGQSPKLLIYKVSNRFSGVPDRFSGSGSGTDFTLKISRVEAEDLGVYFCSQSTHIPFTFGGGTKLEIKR	OD	0.92

Identify the reported OD450 for the following entry. S009-F8-24.14 (antibody, human IgG1, kappa, V domains shown, Human-murine chimeric antibody, human IgG1 heavy and kappa light constant regions) VH: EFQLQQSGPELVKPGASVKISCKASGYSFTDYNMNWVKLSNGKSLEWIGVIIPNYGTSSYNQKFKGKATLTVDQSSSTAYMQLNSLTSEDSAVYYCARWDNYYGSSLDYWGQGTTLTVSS VL: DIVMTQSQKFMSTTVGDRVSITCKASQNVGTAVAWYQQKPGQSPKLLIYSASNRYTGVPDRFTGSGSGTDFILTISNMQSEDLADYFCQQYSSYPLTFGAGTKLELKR 0.75

Hello, the source for this data is patent US20250250357A1, in case you need it.
